System: uninfected MT2 cells
Test: Compound cytotoxicity, XTT-based colorimetric assay
Type: cell-based
Conditions: Table 1, day 4, XTT
MEASURED PARAMETER: CC50 (µM)

{"columns": ["COMPOUND", "MEASURED PARAMETER", "QUALIFIER SIGN", "MEAS VALUE"],
 "data": [
  ["Cc1nc2nc(C(Cc3cc(F)cc(F)c3)NC(=O)Cn3nc(C(F)F)c4c3C(F)(F)[C@@H]3C[C@H]43)c(-c3ccc(Cl)c4c(NS(C)(=O)=O)nn(C)c34)cc2s1 (single isomer, unassigned)", "CC50", ">", 10],
  ["Cn1nc(NS(C)(=O)=O)c2c(Cl)ccc(-c3cc4[nH]ccc4nc3C(Cc3cc(F)cc(F)c3)NC(=O)Cn3nc(C(F)F)c4c3C(F)(F)[C@@H]3C[C@H]43)c21 (single isomer, unassigned) [Example 5.3]", "CC50", ">", 10],
  ["O=C(Cn1nc(C(F)F)c2c1C(F)(F)[C@@H]1C[C@H]21)NC(Cc1cc(F)cc(F)c1)c1ncc2nc[nH]c2c1-c1ccc2scnc2c1 (single isomer, unassigned)", "CC50", "=", 17.5],
  ["O=C(Cc1c[nH]c2ccc(O)cc12)NC(Cc1cc(F)cc(F)c1)c1nc2cn[nH]c2cc1-c1ccc2scnc2c1 (single isomer, unassigned)", "CC50", "=", 83.9],
  ["O=C(Cn1nc(C(F)F)c2c1C(F)(F)[C@@H]1C[C@H]21)N[C@H](Cc1cc(F)cc(F)c1)c1nc2cn[nH]c2cc1-c1ccc2scnc2c1 (single isomer, unassigned) [Example 3.2]", "CC50", "=", 12.7]
]}

---

Experiment: Compound cytotoxicity, XTT-based colorimetric assay
Format: cell-based
Conditions: human, uninfected MT2 cells, Table 1a, day 4, XTT
Reported CC50 at 4 days values for the following compounds.

{"columns": ["COMPOUND", "CC50 at 4 days"],
 "data": [
  ["Cn1nc(NS(C)(=O)=O)c2c(Cl)ccc(-n3c([C@H](Cc4cc(F)cc(F)c4)NC(=O)Cn4nc(C(F)F)c5c4C(F)(F)[C@@H]4C[C@H]54)nc4c(F)cccc4c3=O)c21 (single isomer, unassigned)", "> 1000 nM"],
  ["CS(=O)(=O)Nc1nn(CC(F)F)c2c(-c3nc4ccccc4nc3[C@H](Cc3cc(F)cc(F)c3)NC(=O)Cn3nc(C(F)F)c4c3C(F)(F)[C@@H]3C[C@H]43)ccc(Cl)c12", "> 1000 nM"],
  ["NS(=O)(=O)c1ccc(-c2cc3[nH]ncc3nc2[C@H](Cc2cc(F)cc(F)c2)NC(=O)Cn2nc(C(F)F)c3c2C(F)(F)[C@@H]2C[C@H]32)cc1", "> 10000 nM"],
  ["Cc1ccn(CC(=O)N[C@@H](Cc2cc(F)cc(F)c2)c2nc3ncccc3c(=O)n2-c2ccc(Cl)c3c(NS(C)(=O)=O)nn(C)c23)n1 (single isomer, unassigned)", "> 1000 nM"],
  ["Nc1c(-c2ccc3c(c2)C(=O)NC3)c([C@H](Cc2cc(F)cc(F)c2)NC(=O)Cn2nc(C(F)F)c3c2C(F)(F)[C@@H]2C[C@H]32)nc2ncnn12", "> 10000 nM"],
  ["COc1cc(F)c2c(=O)n(-c3ccc(Cl)c4c(NS(C)(=O)=O)nn(C)c34)c([C@H](Cc3cc(F)cc(F)c3)NC(=O)Cn3ccc(C4CC4)n3)nc2c1 [Example 188]", "> 1000 nM"],
  ["COc1ccc2c(=O)n(-c3ccc(Cl)c4c(NS(=O)(=O)C5CC5)nn(CC(F)F)c34)c([C@H](Cc3cc(F)cc(F)c3)NC(=O)Cn3nc(C(F)F)c4c3C(F)(F)[C@@H]3C[C@H]43)nc2n1 (mixture of isomers)", "> 1000 nM"],
  ["Cn1nc(NS(C)(=O)=O)c2c(Cl)ccc(-n3c([C@H](Cc4cc(F)cc(F)c4)NC(=O)Cc4n[nH]c5ccc(O)cc45)nc4ncccc4c3=O)c21 (single isomer, unassigned)", "> 1000 nM"],
  ["Cn1nc(NS(C)(=O)=O)c2c(Cl)ccc(-c3cc4cc[nH]c4nc3[C@@H](Cc3cc(F)cc(F)c3)NC(=O)Cn3nc(C(F)F)c4c3C(F)(F)[C@@H]3C[C@H]43)c21 (single isomer, unassigned)", "> 10000 nM"],
  ["Cn1nc(NS(C)(=O)=O)c2c(Cl)ccc(-n3c([C@H](Cc4cc(F)cc(F)c4)NC(=O)Cn4nc(C(F)F)c5c4C(F)(F)[C@@H]4C[C@H]54)nc4cc(S(C)(=O)=O)ccc4c3=O)c21 (mixture of isomers)", "> 1000 nM"],
  ["Cn1nc(NS(C)(=O)=O)c2c(Cl)ccc(-n3c([C@H](Cc4cc(F)cc(F)c4)NC(=O)Cn4nc(C(F)F)c5c4C(F)(F)[C@@H]4C[C@H]54)nc4cc(Cl)cc(Cl)c4c3=O)c21 (mixture of isomers) [Example 178]", "> 1000 nM"],
  ["Cn1nc(NS(C)(=O)=O)c2c(Cl)ccc(-n3c([C@H](Cc4cc(F)cc(F)c4)NC(=O)Cn4nc(C(F)F)c5c4C(F)(F)[C@@H]4C[C@H]54)nc4c(C(N)=O)cccc4c3=O)c21 (single isomer, unassigned)", "> 1000 nM"],
  ["Cn1nc(NS(C)(=O)=O)c2c(Cl)ccc(-c3nc4ccccc4nc3[C@H](Cc3cc(F)cc(F)c3)NC(=O)Cn3nc(C(F)F)c4c3C(F)(F)[C@@H]3C[C@H]43)c21", "> 10000 nM"],
  ["NC(=O)c1cc(-n2c([C@H](Cc3cc(F)cc(F)c3)NC(=O)Cn3nc(C(F)F)c4c3C(F)(F)[C@@H]3C[C@H]43)nc3ncccc3c2=O)ccc1F", "> 10000 nM"],
  ["COc1ccc2c(=O)n(-c3ccc(Cl)c4c(NS(=O)(=O)C5CC5)nn(CC(F)F)c34)c([C@H](Cc3cc(F)cc(F)c3)NC(=O)Cn3ccc(C4CC4)n3)nc2n1 (single isomer, unassigned)", "> 1000 nM"],
  ["CN1CCN(S(=O)(=O)c2ccc(-c3cc4[nH]ncc4nc3[C@H](Cc3cc(F)cc(F)c3)NC(=O)Cn3nc(C(F)F)c4c3C(F)(F)[C@@H]3C[C@H]43)cc2)CC1", "> 10000 nM"],
  ["Cn1nc(NS(C)(=O)=O)c2c(Cl)ccc(-n3c(C(Cc4cc(F)cc(F)c4)NC(=O)Cn4nc(C(F)F)c5c4C(F)(F)[C@@H]4C[C@H]54)nc4ncc(C#N)cc4c3=O)c21 (mixture of isomers)", "> 10000 nM"],
  ["CN1Cc2ccc(-c3cc4[nH]ncc4nc3[C@H](Cc3cc(F)cc(F)c3)NC(=O)Cn3nc(C(F)F)c4c3C(F)(F)[C@@H]3C[C@H]43)cc2C1=O", "10000 nM"]
]}
